- System: Lactobacillus paracasei
- test.method.notes: growth AUC relative to DMSO control (median of replicates) (fraction); higher = more growth (less inhibition), active = hit call of the paper
- protocol.conditions: 20 µM; 24 h
measured.endpoint: growth AUC

1. CCOP(=S)(OCC)SCCS(=O)(=O)CC = 1.01
2. O=c1[nH]c2c(c(=O)n1C1CCCCC1)CCC2 = 1.02
3. Cc1ccccc1C(=O)Nc1cccc(OC(C)C)c1 = 1.01

###

- Test system: Bacteroides stercoris
- test.method.notes: growth AUC relative to DMSO control (median of replicates) (fraction); higher = more growth (less inhibition), active = hit call of the paper
- protocol.conditions: 20 µM; 24 h
Parameter threshold = 1. Response is T when growth AUC meets or exceeds it, else F.

1) CC(C)N(C(=O)SCC(Cl)=C(Cl)Cl)C(C)C = F
2) CCOP(=O)(SC(C)CC)SC(C)CC (stereo not given) = F
3) CC(C)Nc1nc(Cl)nc(NC(C)C)n1 = T
4) Cc1ccc(NC(=O)N(C)C)cc1Cl = F
5) Cc1cc(Cl)ccc1O = T
6) CC(C)(C)C(O)C(Oc1ccc(-c2ccccc2)cc1)n1cncn1 (mixture of isomers) = T
7) CC1(C)[C@H](C(=O)O[C@H](C#N)c2cccc(Oc3ccccc3)c2)[C@@H]1C=C(Br)Br = T
8) O=C(O)COc1ccccc1 = T
9) CNC(=O)c1cc(C#N)cc(C)c1NC(=O)c1cc(Br)nn1-c1ncccc1Cl = F
10) CNC(=O)Oc1cc(C)c(SC)c(C)c1 = F
11) Clc1cccc(C(Cl)(Cl)Cl)n1 = T
12) C[C@H]1[C@H](c2ccc(Cl)cc2)SC(=O)N1C(=O)NC1CCCCC1 = T
13) Nc1cc(Cl)cc(Cl)c1 = T
14) CCCOCC(=Nc1ccc(Cl)cc1C(F)(F)F)n1ccnc1 = T
15) CNC(=O)O/N=C/C(C)(C)SC = F
16) O=S(=O)(c1ccc(Cl)cc1)c1cc(Cl)c(Cl)cc1Cl = F
17) COP(=S)(OC)Oc1ccc([N+](=O)[O-])c(C)c1 = F
18) CNC(=O)Oc1cc(C)c(N(C)C)c(C)c1 = F
19) O=C(O)c1cc(Oc2ccc(C(F)(F)F)cc2Cl)ccc1[N+](=O)[O-] = F
20) O=C(NC(=O)c1c(F)cccc1F)Nc1cc(Cl)c(Oc2ncc(C(F)(F)F)cc2Cl)c(Cl)c1 = T
21) ClC1=C(Cl)C2(Cl)C3C(Cl)C=CC3C1(Cl)C2(Cl)Cl (stereo not given) = T
22) CNC(=S)S = T
23) Oc1ccc(Cc2ccc(O)cc2)cc1 = T
24) c1ccc(-c2ccccc2)cc1 = T
25) CC(C)(C)C(O)(CCc1ccc(Cl)cc1)Cn1cncn1 (stereo not given) = T
26) Nc1cc(Cl)ccc1Cl = T
27) Clc1ccc(Cl)cc1 = T
28) CCCOCCN(C(=O)CCl)c1c(CC)cccc1CC = F
29) Cc1cc(C2CC2)nc(Nc2ccccc2)n1 = F
30) CCN(CC)C(=O)SCc1ccc(Cl)cc1 = T
31) O=C(O)c1nc(Cl)ccc1Cl = T

Where do the numbers come from? From the supplement of paper PMC12669032.
